Target: BRD4 bromodomains (Homo sapiens)
Construct: fused on or other part: T7 phage capsid protein (phage-display fusion; the phage DNA is read out by qPCR)
Experiment: BROMOscan bromodomain competition binding assay (DiscoveRx)
Details: Kd from 11 compound concentrations ranging from 0 to 10 μM, read-out: BROMOscan Relative Activity
reported property: Kd

Look over these answered cases.
compound | test target | Kd
Cc1noc(C)c1-c1ccc2ncnc(NCc3cccc(Cl)c3)c2c1 | BRD4 bromodomains (Homo sapiens) | < 500 nM
Cc1ccc(CNc2nc(N3CCN(CCN(C)C)CC3)nc3ccc(-c4c(C)noc4C)cc23)s1 | BRD4 bromodomains (Homo sapiens) | < 500 nM
CC(=O)N1CCN(c2nc(NCc3cccc(Cl)c3)c3cc(-c4c(C)noc4C)ccc3n2)CC1 | BRD4 bromodomains (Homo sapiens) | < 500 nM

Prompt: Give its Kd value. Item: Cc1noc(C)c1-c1ccc2nc(N3CCN(CCN(C)C)CC3)nc(NCc3cccc(Br)c3)c2c1
Completion: < 500 nM

Prompt: Repeat with Cc1noc(C)c1-c1ccc2nc(C(=O)O)nc(NCc3cccc(Cl)c3)c2c1
Completion: < 500 nM

Prompt: Repeat with Cc1noc(C)c1-c1ccc2c(NCc3cccc(Cl)c3)nc(-c3cnn(CC(N)=O)c3)nc2c1
Completion: 500 to 5000 nM

Prompt: Repeat with Cc1noc(C)c1-c1ccc2nc(N3CCN(CCN(C)C)CC3)nc(N3CC(Cc4ccccc4)C3)c2c1
Completion: 500 to 5000 nM

Prompt: Repeat with Cc1noc(C)c1-c1ccc2nc(-c3cnn(C(C)(C)CO)c3)nc(NCc3cccc(Cl)c3)c2c1
Completion: < 500 nM

Prompt: Repeat with Cc1noc(C)c1-c1ccc2nc(N3CCN(CCO)CC3)nc(NCc3cncc(Cl)c3)c2c1
Completion: < 500 nM

Prompt: Repeat with Cn1cc(-c2ccc3nc(N4CCN(CC(N)=O)CC4)nc(NCc4cncc(Cl)c4)c3c2)ccc1=O
Completion: < 500 nM

Prompt: Repeat with Cc1ccc(CNC(=O)c2nc(NCc3cccc(Cl)c3)c3cc(-c4c(C)noc4C)ccc3n2)cn1
Completion: < 500 nM

Prompt: Repeat with Cc1noc(C)c1-c1ccc2nc(-c3cnn(CC(C)(C)O)c3)nc(NC3(c4cccc(Cl)c4)CC3)c2c1
Completion: < 500 nM

Prompt: Repeat with Cc1noc(C)c1-c1ccc2nc(C(=O)NCC3CN(C)C3)nc(N3CCOC[C@@H]3c3ccccc3)c2c1
Completion: < 500 nM

Prompt: Repeat with Cc1noc(C)c1-c1ccc2nc(C(=O)NC3CCOCC3)nc(NCc3cncc(Cl)c3)c2c1
Completion: < 500 nM

Prompt: Repeat with Cc1noc(C)c1-c1ccc2nc(C(=O)NC3CN(C)C3)cc(NCc3cccc(Cl)c3)c2c1
Completion: < 500 nM

Prompt: Repeat with Cc1noc(C)c1-c1ccc2nc(-c3cnn(CC(=O)N(C)C)c3)nc(NCc3cncc(Cl)c3)c2c1
Completion: < 500 nM

Prompt: Repeat with CN(C)CCN1CCN(c2nc(NCc3cccc(Cl)c3)c3cc(-c4cn[nH]c4)ccc3n2)CC1
Completion: > 5000 nM

Prompt: Repeat with Cc1noc(C)c1-c1ccc2nc(N3CCN(CCN(C)C)CC3)nc(N[C@H](CO)c3ccccc3)c2c1
Completion: < 500 nM

====

Biological target: BRD4 bromodomains (Homo sapiens)
Construct: fused on or other part: T7 phage capsid protein (phage-display fusion; the phage DNA is read out by qPCR)
Assay: BROMOscan bromodomain competition binding assay (DiscoveRx)
Conditions: Kd from 11 compound concentrations ranging from 0 to 10 μM, read-out: BROMOscan Relative Activity
reported property: Kd

Look over these answered cases.
molecule | Kd
Cc1noc(C)c1-c1ccc2nc(C(=O)NCc3cncn3C)nc(N3CCOC[C@@H]3c3ccccc3)c2c1 | < 500 nM
Cc1noc(C)c1-c1ccc2nc(C(=O)NCc3ccncc3)nc(NCc3cncc(Cl)c3)c2c1 | < 500 nM

Prompt: BRD4 bromodomains (Homo sapiens) / Kd / Cc1noc(C)c1-c1ccc2c(NCc3cccc(Cl)c3)nc(N3CCN(CCN(C)C)CC3)nc2c1 : value?
Completion: 500 to 5000 nM

Prompt: Repeat with Cc1noc(C)c1-c1ccc2nc(N3CCN(CCN(C)C)CC3)nc(N(C)Cc3cccc(Cl)c3)c2c1
Completion: < 500 nM

Prompt: Repeat with Cc1noc(C)c1-c1cc(NCc2cccc(Cl)c2)c2cc(Br)ccc2n1
Completion: > 5000 nM

Prompt: Repeat with Cc1noc(C)c1-c1ccc2nc(N3CCN(CC(C)O)CC3)nc(NCc3cccc(Cl)c3)c2c1 (centres unmarked)
Completion: < 500 nM

Prompt: Repeat with Cc1noc(C)c1-c1ccc2nc(N3CCC(CO)CC3)nc(NCc3cccc(Cl)c3)c2c1
Completion: 500 to 5000 nM

Prompt: Repeat with CNC(=O)C1CCN(c2nc(N3CCOC[C@@H]3c3ccccc3)c3cc(-c4c(C)noc4C)ccc3n2)CC1
Completion: < 500 nM
